assay: thallium influx changes without GIRK channels – cell-based, HEK-293 rmGlu8, no GIRK, thallium flux, counter-screen for GIRK activator project, confirmation (AID 623868); details: thallium flux fluorescence, at 10 µM, actives lie on both sides, codes: 1 enhancer, -1 blocker, 0 none, thallium stimulus containing EC20 glutamate
About 760 (36%) of roughly 2,100 compounds were called active.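 The calls were made as follows: active = thallium-flux fluorescence traces judged by eye to show enhanced or reduced glutamate response, manual score 1 or -1, so both directions (some results past the limit were not filed as active); inactive = the rest, including fluorescent or raised-baseline compounds.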 These entries were drawn from the full list.
Outcomes: yes = active, no = inactive

- compound: "Cc1ccccc1C(=O)NNC(=S)NC(=O)c1ccc(Cl)cc1Cl"
  assigned_category: "yes"
- compound: "CCCSc1nnc(Nc2ccccc2C)s1"
  assigned_category: "no"
- compound: "COc1ccc(C2C(C(N)=O)=C(C)Nc3nc(-c4cccc(Cl)c4)nn32)cc1OC (configuration not stated)"
  assigned_category: "no"
- compound: "O=C(Nn1cnnc1)c1cc2cc(Br)ccc2oc1=O"
  assigned_category: "no"
- compound: "CN(C)CCNc1ncnc2c1cnn2-c1ccc(Cl)cc1"
  assigned_category: "no"
- compound: "CCN(CC)c1ccc2cc(-c3nc4ccccc4[nH]3)c(=O)oc2c1"
  assigned_category: "no"
- compound: "OC(CNCC1CCCO1)Cn1c2ccc(Br)cc2c2cc(Br)ccc21 (configuration not stated)"
  assigned_category: "no"
- compound: "CCOC(=O)Cn1c(=N)n(Cc2ccccc2F)c2ccccc21"
  assigned_category: "no"
- compound: "Cc1c(C2Nc3ccccc3NC3=C2C(=O)CC(C)(C)C3)cnn1C (configuration not stated)"
  assigned_category: "no"
- compound: "Cc1ccccc1C(=O)NC(=S)Nc1ccc(Oc2ccc(Cl)cc2)cc1"
  assigned_category: "no"
- compound: "Cc1ccccc1C(=O)NNC(=O)C(=O)Nc1cccc(Cl)c1C"
  assigned_category: "yes"
- compound: "CSc1nc(Sc2ccccc2)c2ccccc2n1"
  assigned_category: "no"

###

experiment: thallium influx changes without GIRK channels – cell-based, HEK-293 rmGlu8, no GIRK, thallium flux, counter-screen for GIRK activator project, confirmation (AID 623868); settings: thallium flux fluorescence, at 10 µM, actives lie on both sides, codes: 1 enhancer, -1 blocker, 0 none, thallium stimulus containing EC20 glutamate
The whole screen tested about 2,100 compounds, of which about 760 (36%) were called active.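 The calls were made as follows: active = thallium-flux fluorescence traces judged by eye to show enhanced or reduced glutamate response, manual score 1 or -1, so both directions (some results past the limit were not filed as active); inactive = the rest, including fluorescent or raised-baseline compounds.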 Only a sample is shown.
Classes used: active, inactive

- compound: "O=C(NC(=S)Nc1ccccc1N1CCOCC1)c1cccs1"
  assigned_category: "active"
- compound: "O=c1c2ccccc2[nH]c(=S)n1CCCN1CCN(C2CCCCC2)CC1"
  assigned_category: "active"
- compound: "CC1(C)CC(=O)c2c(noc2-c2ccccc2)C1"
  assigned_category: "inactive"
- compound: "COc1ccc2cc(C(=O)NCC(=O)O)sc(=O)c2c1OC"
  assigned_category: "inactive"
- compound: "Cc1cccc(CSc2cccc3cccnc23)c1"
  assigned_category: "active"
- compound: "Cc1ccc(C(=O)Nc2nc(-c3ccccc3)c(-c3ccccc3)o2)cc1"
  assigned_category: "active"
- compound: "CC(C)N(Cc1nc(-c2ccccc2)no1)C(=O)CSc1ccccc1"
  assigned_category: "inactive"
- compound: "CCCC1COC(Cn2cncn2)(c2ccc(C)cc2)O1 (configuration not stated)"
  assigned_category: "inactive"
- compound: "CCOC(=O)CSc1cccc2cccnc12"
  assigned_category: "active"
- compound: "Cc1ccc(C)c(C(=O)c2c(C)nc3sccn23)c1"
  assigned_category: "inactive"
- compound: "C#CCSc1nnc(-c2cccc3ccccc23)o1"
  assigned_category: "inactive"
- compound: "CCn1c(=S)[nH]c2nc3c(cc2c1=O)CCCC3"
  assigned_category: "active"
